Biological target: T1, human MSLN-FL-his protein (human, UniProt Q13421 296-580)
T1 construct: made in HEK293E cells, purified on nickel column; also called hMSLN-FL-his; human MSLN full-length protein; not shown: His tag
T1 sequence (Q13421 other isoform, or with tags, fused parts or gaps): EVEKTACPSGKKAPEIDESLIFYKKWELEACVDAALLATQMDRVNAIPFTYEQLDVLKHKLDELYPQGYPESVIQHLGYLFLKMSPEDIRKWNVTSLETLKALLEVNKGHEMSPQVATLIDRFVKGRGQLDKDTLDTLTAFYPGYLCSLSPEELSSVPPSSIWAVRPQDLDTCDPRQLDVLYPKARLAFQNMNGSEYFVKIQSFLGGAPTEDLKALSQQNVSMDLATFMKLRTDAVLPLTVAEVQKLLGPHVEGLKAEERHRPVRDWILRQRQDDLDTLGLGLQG
Assay: competitive ELISA; row F2.39.3
# label = Satisfied if competition rate < 30% else Not satisfied

S009-F1.56.1 (antibody, human IgG1, kappa, V domains shown, human-murine chimeric antibody, human IgG1/kappa constant regions) VH: EVQLQQSGAEVVKPGASVKLSCTASGFNIRHTYMHWVKQRPEQGLEWIGRIDPANGNTEYDPKFQGKATITADTSSNTAYLQLSSLTSEDTAVYYCARDGWYIDVWGAGTTVTVSS VL: DIVMSQSPSSLAVSVGEKVTMSCKSSQSLLYSNNQKNYLAWYQQKPGQSPKLLIYWASTRESGVPDRFTGSGSGTDFTLTISSVKAEDLAVYYCQRYYSYPWTFGGGTKLEIKR
Not satisfied
S009-F2.16.10 (antibody, human IgG1, kappa, V domains shown, human-murine chimeric antibody, human IgG1/kappa constant regions) VH: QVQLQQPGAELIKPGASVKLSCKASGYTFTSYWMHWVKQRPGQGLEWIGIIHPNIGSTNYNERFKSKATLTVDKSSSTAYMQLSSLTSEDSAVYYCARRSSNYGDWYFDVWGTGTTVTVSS VL: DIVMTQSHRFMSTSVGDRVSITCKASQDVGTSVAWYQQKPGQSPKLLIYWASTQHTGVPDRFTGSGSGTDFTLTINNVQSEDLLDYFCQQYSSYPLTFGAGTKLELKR
Not satisfied
S009-F2.39.3 (antibody, human IgG1, kappa, V domains shown, human-murine chimeric antibody, human IgG1/kappa constant regions) VH: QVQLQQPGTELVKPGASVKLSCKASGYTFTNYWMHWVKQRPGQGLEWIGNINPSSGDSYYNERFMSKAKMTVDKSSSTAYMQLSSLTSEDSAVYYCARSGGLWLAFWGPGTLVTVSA VL: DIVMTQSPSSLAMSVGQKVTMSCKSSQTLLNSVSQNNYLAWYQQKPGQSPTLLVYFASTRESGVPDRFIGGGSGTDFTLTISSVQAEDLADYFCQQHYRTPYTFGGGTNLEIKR
Not satisfied
S009-F2.58.8 (antibody, human IgG1, kappa, V domains shown, human-murine chimeric antibody, human IgG1/kappa constant regions) VH: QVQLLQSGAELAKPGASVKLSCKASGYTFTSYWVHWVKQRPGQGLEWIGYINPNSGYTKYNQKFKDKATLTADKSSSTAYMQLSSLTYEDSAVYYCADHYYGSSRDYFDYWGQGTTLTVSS VL: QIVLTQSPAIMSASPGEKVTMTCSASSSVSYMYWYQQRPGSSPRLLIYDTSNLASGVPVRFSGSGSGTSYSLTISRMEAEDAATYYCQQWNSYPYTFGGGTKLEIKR
Not satisfied
Tab107 (YP3, hIgG1) (antibody, V domains shown, Control antibody; VH and VL recombined into human IgG1 CH and CL expression vectors; also called YP3 human IgG1 antibody) VH: QEQLVESGGGLVQPGASLTLTCTASGIDFSRYYMCWVRQAPGKGLEGIACIYIGGSGSTYYASWAKGRFTISKASSTTVTLQMTSLTAADTATYFCARGTNLNYIFRLWGPGTLVTVSS VL: DVVMTQTPSPVSAAVGGTVTIKCQASQSINNGLAWYQQKPGQPPRLLIYSASNLESGVPSRFKGSGSGTEFTLTISDLECDDAATYYCQCIWDGNSYVNAFGGGTEVVVRT
Satisfied

The values you see were collected from patent US20250250357A1.
